Provide the reported pIC50 of each item.
biological target: CDK9/CycT1 (Homo sapiens, UniProt P50750); construct: Recombinant full-length His-tagged human CDK9 and CycT1; His; purchased Invitrogen PV4131; host or cells: insect cells; assay: CDK9/CycT1 kinase assay (TR-FRET, Method 1a); format: biochemical; settings: Method 1a, 10 μM ATP
Sequence (P50750 whole entry): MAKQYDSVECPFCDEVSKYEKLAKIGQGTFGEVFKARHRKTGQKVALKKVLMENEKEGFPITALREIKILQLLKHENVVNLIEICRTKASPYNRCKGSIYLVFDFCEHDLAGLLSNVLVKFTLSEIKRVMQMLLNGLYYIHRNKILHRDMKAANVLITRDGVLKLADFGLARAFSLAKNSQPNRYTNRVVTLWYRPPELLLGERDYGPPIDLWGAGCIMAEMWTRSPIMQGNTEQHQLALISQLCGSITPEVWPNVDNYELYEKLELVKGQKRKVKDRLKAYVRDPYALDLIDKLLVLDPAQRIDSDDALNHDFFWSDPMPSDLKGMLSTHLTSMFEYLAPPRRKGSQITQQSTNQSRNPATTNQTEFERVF
Sequence (O60563 whole entry partner): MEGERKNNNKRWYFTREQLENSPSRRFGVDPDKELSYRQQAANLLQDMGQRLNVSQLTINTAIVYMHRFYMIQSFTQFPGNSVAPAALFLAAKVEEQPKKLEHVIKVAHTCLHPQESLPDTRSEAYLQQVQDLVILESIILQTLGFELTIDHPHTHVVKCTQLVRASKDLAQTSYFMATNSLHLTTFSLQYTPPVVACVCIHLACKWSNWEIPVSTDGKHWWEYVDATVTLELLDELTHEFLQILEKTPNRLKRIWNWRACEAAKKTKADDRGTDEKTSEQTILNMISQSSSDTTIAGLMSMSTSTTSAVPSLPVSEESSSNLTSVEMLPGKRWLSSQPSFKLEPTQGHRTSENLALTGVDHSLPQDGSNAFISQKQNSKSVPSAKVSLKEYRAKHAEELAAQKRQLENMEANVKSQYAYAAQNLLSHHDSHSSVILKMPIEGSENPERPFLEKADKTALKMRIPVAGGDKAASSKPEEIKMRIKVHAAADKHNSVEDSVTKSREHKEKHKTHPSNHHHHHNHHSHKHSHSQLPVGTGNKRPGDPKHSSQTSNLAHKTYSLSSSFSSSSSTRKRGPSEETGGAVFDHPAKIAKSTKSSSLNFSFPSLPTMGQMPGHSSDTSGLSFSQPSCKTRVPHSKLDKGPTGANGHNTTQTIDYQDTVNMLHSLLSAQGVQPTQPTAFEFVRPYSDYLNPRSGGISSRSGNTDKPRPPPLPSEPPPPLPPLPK
One number for each entry, as −log10 of the molar value.

| Molecule | Assay Metric | Assay Value |
| --- | --- | --- |
| CCCS(=O)(=O)Cc1cc(F)cc(Nc2ncc(F)c(-c3ccc(F)cc3F)n2)c1 [Example 13] | pIC50 | 7.89 |

Record pIC50 for all entries; do not skip any.
1. O=S(=O)(Cc1cccc(Nc2ncc(F)c(-c3ccc(F)cc3F)n2)c1)C1CC1 [Example 9]
2. CS(=O)(=O)Cc1cc(Nc2ncc(F)c(-c3ccc(F)cc3F)n2)cc(C(F)(F)F)c1 [Example 1]
3. CS(=O)(=O)Cc1cc(F)cc(Nc2ncc(F)c(-c3ccc(F)cc3F)n2)c1 [Example 10]

Response given:
1: 7.89; 2: 7.70; 3: 6.89

* * *

test system: Caco-2 cells; assay: Proliferation assay (crystal violet), Caco-2; type: cell-based; settings: Homo sapiens, 96 h; Caco-2, 4 days; read-out: Inhibition of Caco-2 cell proliferation IC50
Assay Metric: pIC50
Answers are plain numbers, as −log10 of the molar value.

Challenge: Any idea what its pIC50 is? The compound is CS(=O)(=O)Cc1cc(Nc2ncc(F)c(-c3ccc(F)cc3F)n2)cc(S(F)(F)(F)(F)F)c1 [Example 6]
Response given: 6.42

* * *

molecular target: CDK9/CycT1 (Homo sapiens, UniProt P50750); construct: Recombinant full-length His-tagged human CDK9 and CycT1; His; purchased Invitrogen PV4131; host or cells: insect cells; experiment: CDK9/CycT1 kinase assay (TR-FRET, Method 1a); assay type: biochemical; conditions: derived from Methods 1a. and 2.
Assay Metric: Selectivity CDK9/CDK2
Give bare numbers.

See these solved cases before continuing.
| Input Smiles | Selectivity CDK9/CDK2 |
| --- | --- |
| CS(=O)(=O)Cc1cc(F)cc(Nc2ncc(F)c(-c3ccc(F)cc3F)n2)c1 | 28 |
| CC(C)S(=O)(=O)Cc1cccc(Nc2ncc(F)c(-c3ccc(F)cc3F)n2)c1 | 24 |
| CCS(=O)(=O)Cc1cccc(Nc2ncc(F)c(-c3ccc(F)cc3F)n2)c1 | 8.9 |

With those in mind, consider the next molecule.
Challenge: Reported Selectivity CDK9/CDK2, molecule `O=S(=O)(Cc1cccc(Nc2ncc(F)c(-c3ccc(F)cc3F)n2)c1)C1CC1` : ____
Response given: 32

* * *

biological target: CDK9/CycT1 (Homo sapiens); construct: Recombinant full-length His-tagged human CDK9 and CycT1; His; purchased Invitrogen PV4131; host or cells: insect cells; assay: CDK9/CycT1 kinase assay (TR-FRET, Method 1a); assay type: biochemical; conditions: derived from Methods 1a. and 2.
Assay Metric: Selectivity CDK9/CDK2
One number for each entry.

Here is how some compounds turned out for Selectivity CDK9/CDK2.
| Compound | System Tested | Selectivity CDK9/CDK2 |
| --- | --- | --- |
| COCCS(=O)(=O)Cc1cccc(Nc2ncc(F)c(-c3ccc(F)cc3F)n2)c1 [Example 4] | CDK9/CycT1 (Homo sapiens) | 20 |
| CS(=O)(=O)Cc1cc(Nc2ncc(F)c(-c3ccc(F)cc3F)n2)cc(S(F)(F)(F)(F)F)c1 [Example 6] | CDK9/CycT1 (Homo sapiens) | 122 |

Here are 3 compounds. What values of Selectivity CDK9/CDK2 were reported for them?
1. CS(=O)(=O)Cc1cccc(Nc2ncc(F)c(-c3ccc(F)cc3F)n2)c1 [Example 5]
2. CC(C)(C)S(=O)(=O)Cc1cccc(Nc2ncc(F)c(-c3ccc(F)cc3F)n2)c1 [Example 3]
3. CCCS(=O)(=O)Cc1cccc(Nc2ncc(F)c(-c3ccc(F)cc3F)n2)c1 [Example 8]

Response given:
1: 9.1; 2: 10; 3: 15

Take each entry in turn and give its Selectivity CDK9/CDK2.
1. CS(=O)(=O)Cc1cc(F)cc(Nc2ncc(F)c(-c3ccc(F)c(F)c3F)n2)c1 [Example 12]
2. CCCS(=O)(=O)Cc1cc(F)cc(Nc2ncc(F)c(-c3ccc(F)cc3F)n2)c1 [Example 13]

Response given:
1. 14
2. 44

* * *

target: CDK2/CycE (Homo sapiens, UniProt P24941); construct: GST; assay: CDK2/CycE kinase assay (TR-FRET, Method 2); conditions: Method 2, 10 μM ATP
Provide the recorded pIC50 for the entries that follow.
Give bare numbers, as −log10 of the molar value.

Would you please look over these solved cases?
| Compound | pIC50 |
| --- | --- |
| COCCS(=O)(=O)Cc1cccc(Nc2ncc(F)c(-c3ccc(F)cc3F)n2)c1 [Example 4] | 5.59 |
| O=S(=O)(Cc1cccc(Nc2ncc(F)c(-c3ccc(F)cc3F)n2)c1)C1CC1 [Example 9] | 6.39 |
| CS(=O)(=O)Cc1cc(F)cc(Nc2ncc(F)c(-c3ccc(F)c(F)c3F)n2)c1 [Example 12] | 6.46 |
| CCCS(=O)(=O)Cc1cccc(Nc2ncc(F)c(-c3ccc(F)cc3F)n2)c1 [Example 8] | 6.24 |
| CCCS(=O)(=O)Cc1cc(F)cc(Nc2ncc(F)c(-c3ccc(F)cc3F)n2)c1 [Example 13] | 6.24 |

For every item in the list below, what is its measured pIC50?
1. CC(C)S(=O)(=O)Cc1cccc(Nc2ncc(F)c(-c3ccc(F)cc3F)n2)c1 [Example 2]
2. CS(=O)(=O)Cc1cc(F)cc(Nc2ncc(F)c(-c3ccc(F)cc3F)n2)c1 [Example 10]
3. CCS(=O)(=O)Cc1cccc(Nc2ncc(F)c(-c3ccc(F)cc3F)n2)c1 [Example 7]
4. CS(=O)(=O)Cc1cccc(Nc2ncc(F)c(-c3ccc(F)cc3F)n2)c1 [Example 5]
5. CS(=O)(=O)Cc1cc(Nc2ncc(F)c(-c3ccc(F)cc3F)n2)cc(S(F)(F)(F)(F)F)c1 [Example 6]
6. CC(C)(C)S(=O)(=O)Cc1cccc(Nc2ncc(F)c(-c3ccc(F)cc3F)n2)c1 [Example 3]

Response given:
[5.92, 5.24, 6.44, 6.33, 5.75, 6.00]

* * *

biological target: CDK9/CycT1 (Homo sapiens, UniProt P50750); construct: Recombinant full-length His-tagged human CDK9 and CycT1; His; purchased Invitrogen PV4131; host or cells: insect cells; experiment: CDK9/CycT1 high ATP kinase assay (TR-FRET, Method 1b); format: biochemical; conditions: 2 mM ATP
Could you please report measured pIC50 for the items listed next?
Give bare numbers, as −log10 of the molar value.

Some solved entries appear below for comparison.
| Input Smiles | Assay Value |
| --- | --- |
| CS(=O)(=O)Cc1cc(F)cc(Nc2ncc(F)c(-c3ccc(F)c(F)c3F)n2)c1 | 6.57 |
| O=S(=O)(Cc1cccc(Nc2ncc(F)c(-c3ccc(F)cc3F)n2)c1)C1CC1 | 6.48 |

Now for the compound whose pIC50 we want.
Challenge: Looking for the measured pIC50 of `CC(C)S(=O)(=O)Cc1cccc(Nc2ncc(F)c(-c3ccc(F)cc3F)n2)c1` , can you help?
Response given: 5.65

* * *

test system: DU145 cells; experiment: Proliferation assay (crystal violet), DU145; format: cell-based; details: Homo sapiens, DU-145, 96 h; DU145, 4 days; read-out: Inhibition of DU145 cell proliferation IC50
Assay Metric: IC50 (nM)
Numbers only, in nM.

Challenge: Give recorded IC50 with DU145 cells for the following molecule: `CS(=O)(=O)Cc1cc(Nc2ncc(F)c(-c3ccc(F)cc3F)n2)cc(S(F)(F)(F)(F)F)c1`
Response given: 352

* * *

biological target: CDK9/CycT1 (Homo sapiens); construct: Recombinant full-length His-tagged human CDK9 and CycT1; His; purchased Invitrogen PV4131; host or cells: insect cells; assay: CDK9/CycT1 high ATP kinase assay (TR-FRET, Method 1b); assay type: biochemical; conditions: 2 mM ATP
Assay Metric: IC50

Below, each entry is followed by its recorded IC50 result.
| Input Smiles | System Tested | IC50 |
| --- | --- | --- |
| CS(=O)(=O)Cc1cc(Nc2ncc(F)c(-c3ccc(F)cc3F)n2)cc(S(F)(F)(F)(F)F)c1 | CDK9/CycT1 (Homo sapiens) | 99 nM |
| CS(=O)(=O)Cc1cccc(Nc2ncc(F)c(-c3ccc(F)cc3F)n2)c1 | CDK9/CycT1 (Homo sapiens) | 858 nM |
| CCCS(=O)(=O)Cc1cc(F)cc(Nc2ncc(F)c(-c3cc(F)c(F)cc3F)n2)c1 | CDK9/CycT1 (Homo sapiens) | > 20000 nM |
| CC(C)(C)S(=O)(=O)Cc1cccc(Nc2ncc(F)c(-c3ccc(F)cc3F)n2)c1 | CDK9/CycT1 (Homo sapiens) | 14500 nM |
| CS(=O)(=O)Cc1cc(F)cc(Nc2ncc(F)c(-c3ccc(F)cc3F)n2)c1 | CDK9/CycT1 (Homo sapiens) | 2280 nM |
| COCCS(=O)(=O)Cc1cccc(Nc2ncc(F)c(-c3ccc(F)cc3F)n2)c1 | CDK9/CycT1 (Homo sapiens) | 2260 nM |
| CCCS(=O)(=O)Cc1cccc(Nc2ncc(F)c(-c3ccc(F)cc3F)n2)c1 | CDK9/CycT1 (Homo sapiens) | 904 nM |

Please examine the following record next.
Challenge: Need IC50 of `CCCS(=O)(=O)Cc1cc(F)cc(Nc2ncc(F)c(-c3ccc(F)cc3F)n2)c1` , thanks.
Response given: 2280 nM
